I'd appreciate it if you could supply μ, mean values for the items below.
System: Escherichia coli K-12 MG1655
PROCEDURE TEXT: Screening for tolerance in wild-type cells: growth in varying concentrations of diols (Biolector)
Assay type: cell-based
MEASUREMENT SETUP: growth rate of K-12 MG1655, diol 2% (v/v)
# include the unit after the value

CCCC(O)CO (stereo not shown); 0.000 h⁻¹

Report μ, mean for each item below.
1. OCCCCCO
2. CC(O)CO (stereo not shown)
3. CC(O)C(C)O (stereo not shown)

Given back:
0.437 h⁻¹
0.595 h⁻¹
0.754 h⁻¹

* * *

Tested on: Escherichia coli K-12 MG1655
PROCEDURE TEXT: Screening for tolerance in wild-type cells: growth in varying concentrations of diols (Biolector)
Type: cell-based
MEASUREMENT SETUP: growth rate of K-12 MG1655, diol 0.5% (v/v), M9+1% glucose, 37° C.
ASSAY READOUT: μ, mean (h⁻¹)
One number for each entry, in h⁻¹.

Report μ, mean for each item below.
1. CCCC(O)CO (stereo not shown)
2. CC(O)C(C)O (stereo not shown)
3. CC(O)CO (stereo not shown)
4. OCCCCCO

Given back:
0.524
0.944
0.701
0.613

Hey, just so you know, these numbers are from patent US20190309309A1.
